System: SN12C renal
Assay: NCI tumour cell line growth inhibition, 48 h
Form field: TGI (one value per entry).

Some solved cases for reference:
molecule	metric name	measured result
O=c1[nH]c(-c2ccccc2)nc2cc([N+](=O)[O-])c(/C(Cl)=C/c3ccccc3)cc12	TGI	> 100 µM
Cc1ccc(N=NC(=O)NNc2ccc(C)cc2Br)c(Br)c1	TGI	51.2 µM
Oc1ccc(/C=N/NC(=S)Nc2ccccc2)nc1	TGI	> 100 µM
Oc1c(Cl)cc(Cl)c(Cl)c1Cc1c(O)c(Cl)cc(Cl)c1Cl	TGI	22.2 µM
CCN(CC)Cc1cc(Nc2ccnc3ccc(OC)cc23)ccc1O	TGI	20.6 µM
O=C1NC(=NCCc2ccccc2F)S/C1=C\c1ccc2ncccc2c1	TGI	> 25 µM
COc1ncnc2c(Cl)c(C(O)c3ccccc3)c(Cl)cc12 (centres undefined)	TGI	86.8 µM
O=[N+]([O-])c1ccc(C2=NOC(c3ccccc3)N2C23CC4CC(CC(C4)C2)C3)cc1 (centres undefined)	TGI	> 100 µM

For `C=CCc1cc(O)ccc1O` , what is its reported TGI?
49.4 µM

Also C[C@H]1[C@H]2[C@H](C[C@@]3(C)C4=CC[C@H]5C(C)(C)[C@@H](OC6OCC(O)C(O)C6O)CC[C@@]56C[C@@]46CC[C@]23C)O[C@@]2(O)[C@@H]1OC(C)(C)[C@H]2O (some centres undefined) , if possible.
2.75 µM

Also `O=C(N[C@H](CO)[C@H](O)c1ccc([N+](=O)[O-])cc1)C(Cl)Cl` , if possible.
> 100 µM

Also `CCOC(=O)CCCc1cc(=O)c2c(C)c3[nH]c4ccc(Cl)cc4c3c(C)c2[nH]1` , if possible.
95.3 µM

Also `c1ccc(CN2C3C4N(Cc5ccccc5)C2C2N(Cc5ccccc5)C(C(N2Cc2ccccc2)N4Cc2ccccc2)N3Cc2ccccc2)cc1` , if possible.
> 100 µM
